Just for reference, ChEMBL document CHEMBL2417377 is where these values come from.

Tested On: Eukaryotic translation initiation factor 2-alpha kinase 3 (Homo sapiens)
Sequence (whole entry): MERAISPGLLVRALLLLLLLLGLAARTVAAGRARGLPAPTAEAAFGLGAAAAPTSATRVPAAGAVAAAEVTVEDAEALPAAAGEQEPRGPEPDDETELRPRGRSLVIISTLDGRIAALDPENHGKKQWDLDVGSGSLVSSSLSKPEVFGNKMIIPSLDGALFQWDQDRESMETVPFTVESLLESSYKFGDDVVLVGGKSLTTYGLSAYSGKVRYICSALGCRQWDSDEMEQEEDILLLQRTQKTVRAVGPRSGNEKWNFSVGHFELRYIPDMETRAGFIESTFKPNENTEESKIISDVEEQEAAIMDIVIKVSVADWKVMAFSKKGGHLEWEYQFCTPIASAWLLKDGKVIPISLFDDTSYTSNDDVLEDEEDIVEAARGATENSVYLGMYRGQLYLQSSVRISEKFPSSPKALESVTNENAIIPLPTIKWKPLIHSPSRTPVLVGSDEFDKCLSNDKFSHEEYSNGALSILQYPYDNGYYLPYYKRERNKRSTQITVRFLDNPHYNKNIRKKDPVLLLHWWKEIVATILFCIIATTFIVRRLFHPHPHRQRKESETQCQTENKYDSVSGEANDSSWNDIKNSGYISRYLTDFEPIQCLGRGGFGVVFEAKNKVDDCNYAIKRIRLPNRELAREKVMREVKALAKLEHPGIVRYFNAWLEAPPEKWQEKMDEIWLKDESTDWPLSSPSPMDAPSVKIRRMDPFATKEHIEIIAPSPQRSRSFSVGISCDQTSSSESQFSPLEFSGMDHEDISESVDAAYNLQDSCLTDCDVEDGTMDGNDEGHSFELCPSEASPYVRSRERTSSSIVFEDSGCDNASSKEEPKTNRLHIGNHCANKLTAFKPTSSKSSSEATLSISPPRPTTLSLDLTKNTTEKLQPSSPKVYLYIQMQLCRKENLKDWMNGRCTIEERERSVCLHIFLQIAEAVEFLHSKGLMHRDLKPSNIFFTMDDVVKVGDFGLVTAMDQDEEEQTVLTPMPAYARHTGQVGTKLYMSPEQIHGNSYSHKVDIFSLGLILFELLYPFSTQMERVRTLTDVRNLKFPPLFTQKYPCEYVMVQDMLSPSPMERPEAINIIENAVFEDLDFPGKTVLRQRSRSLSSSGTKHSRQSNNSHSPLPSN
Test Description: Inhibition of PEK in human PC3 cell lysates at 10 uM using desthiobiotin-tagged ATP probe AX9989 followed by trypsinization by LC/MS analysis
Measurement Parameters: PC-3
Known inhibition of a selection of compounds

Completed entries (count: 10):
O=C(NC1(c2ccccc2)CCC1)c1ccc2nc(N[C@H]3CC[C@H](O)CC3)c3nccn3c2c1 :: < 35%
O=C(NC1(c2ccc(F)cc2)CC1)c1ccc2nc(N[C@H]3CC[C@H](O)CC3)c3nccn3c2c1 :: < 35%
O=C(O)c1ccc2nc(N[C@H]3CC[C@H](O)CC3)c3nccn3c2c1 :: 37.5%
C[C@H](NC(=O)c1ccc2nc(N[C@H]3CC[C@H](O)CC3)c3nccn3c2c1)c1ccccc1 :: < 35%
CC(C)(NC(=O)c1ccc2nc(N[C@H]3CC[C@H](O)CC3)c3nccn3c2c1)c1ccccc1 :: < 35%
O=C(NC1(c2ccccc2)CC1)c1ccc2nc(N[C@H]3CC[C@H](O)CC3)c3nccn3c2c1 :: < 35%
CCC[C@@H](NC(=O)c1ccc2nc(N[C@H]3CC[C@H](O)CC3)c3nccn3c2c1)c1ccccc1 :: < 35%
CC[C@@H](NC(=O)c1ccc2nc(N[C@H]3CC[C@H](O)CC3)c3nccn3c2c1)c1ccccc1 :: < 35%
O=C(N[C@H](CO)c1ccccc1)c1ccc2nc(N[C@H]3CC[C@H](O)CC3)c3nccn3c2c1 :: < 35%
C[C@@H](NC(=O)c1ccc2nc(N[C@H]3CC[C@H](O)CC3)c3nccn3c2c1)c1ccccc1 :: 38.4%

# query: inhibition of entry O=C(NC1(Cc2ccc(F)cc2)CC1)c1ccc2nc(N[C@H]3CC[C@H](O)CC3)c3nccn3c2c1
< 35%

# query: inhibition of entry NC(=O)c1ccc2nc(N[C@H]3CC[C@H](O)CC3)c3nccn3c2c1
< 35%
